Test system: HCC-15
Test: relative viability (nuclei count vs DMSO), 5 days (fraction); higher = more cells survive
Conditions: first compound 0.4 µM
QUANTITY: relative viability

INSERT INTO measurements (molecule, assay_result) VALUES
  ('C[C@@H]1CN(CC(=O)Nc2ccc3c(c2)Cc2cccc(-c4cc(=O)cc(N5CCOCC5)o4)c2S3)C[C@H](C)O1 + CCNC(=O)c1noc(-c2cc(C(C)C)c(O)cc2O)c1-c1ccc(CN2CCOCC2)cc1 [Luminespib] (partner 0.01 µM)', 0.284),
  ('Clc1ccc(Nc2nnc(Cc3ccncc3)c3ccccc23)cc1 [Vatalanib] + CCNC(=O)c1noc(-c2cc(C(C)C)c(O)cc2O)c1-c1ccc(CN2CCOCC2)cc1 [Luminespib] (partner 0.01 µM)', 0.181),
  ('COc1cc(N2CCC(C(N)=O)CC2)ccc1Nc1nc(N)c(Cl)c(Nc2ccccc2S(=O)(=O)C(C)C)n1 [HG-5-88-01] + Nc1nc2[nH]cc(CCc3ccc(C(=O)N[C@@H](CCC(=O)O)C(=O)O)cc3)c2c(=O)[nH]1 [Pemetrexed] (partner 0.2 µM)', 0.213),
  ('Clc1ccc(Nc2nnc(Cc3ccncc3)c3ccccc23)cc1 [Vatalanib] + CC(=O)c1c(C)c2cnc(Nc3ccc(N4CCNCC4)cn3)nc2n(C2CCCC2)c1=O [Palbociclib] (partner 0.5 µM)', 0.759),
  ('Clc1ccc(Nc2nnc(Cc3ccncc3)c3ccccc23)cc1 [Vatalanib] + O=C(CCCCCCC(=O)Nc1ccccc1)NO [Vorinostat] (partner 1 µM)', 0.964);
